Attribution: BindingDB's records for doi:10.1016/0960-894X(96)00045-5

Ki values for the compounds below.
- Assayed System: 5-hydroxytryptamine receptor 1A (Rattus norvegicus)
- Test: Inhibition of specific [3H]OH-DPAT binding at 5-hydroxytryptamine 1A receptor in rat hippocampal membranes

Below: 6 compounds and their reported Ki.
[[record]]
structure_string = "CCCN(CCC)[C@@H]1C[C@@H]1c1ccccc1OC"
assay_endpoint = "Ki"
result = "> 10000 nM"

[[record]]
structure_string = "CCN(CC)C[C@H]1C[C@@H]1c1ccccc1O"
assay_endpoint = "Ki"
result = "506 nM"

[[record]]
structure_string = "CCCN(CCC)[C@H]1C[C@@H]1c1ccccc1OC"
assay_endpoint = "Ki"
result = "17 nM"

[[record]]
structure_string = "CCCN(CCC)C[C@H]1C[C@@H]1c1cccc(O)c1"
assay_endpoint = "Ki"
result = "186 nM"

[[record]]
structure_string = "CCCN(CCC)[C@@H]1C[C@@H]1c1cccc(OC)c1"
assay_endpoint = "Ki"
result = "736 nM"

[[record]]
structure_string = "CCCN(CCC)C[C@H]1C[C@@H]1c1ccccc1OC"
assay_endpoint = "Ki"
result = "239 nM"


Turning to the following compound.
**Q:** Entry CCCN(CCC)C[C@@H]1C[C@@H]1c1ccccc1O : reported Ki = ?
**A:** 379 nM
